Value source: patent US5804603A

# measured.on: Isolated Guinea Pig Atria (Cavia porcellus, UniProt H0W3H1)
# Construct: Isolated Guinea Pig Atria; from tissue; host or cells: guinea pig atria (isolated organ)
# Sequence (H0W3H1 1-470): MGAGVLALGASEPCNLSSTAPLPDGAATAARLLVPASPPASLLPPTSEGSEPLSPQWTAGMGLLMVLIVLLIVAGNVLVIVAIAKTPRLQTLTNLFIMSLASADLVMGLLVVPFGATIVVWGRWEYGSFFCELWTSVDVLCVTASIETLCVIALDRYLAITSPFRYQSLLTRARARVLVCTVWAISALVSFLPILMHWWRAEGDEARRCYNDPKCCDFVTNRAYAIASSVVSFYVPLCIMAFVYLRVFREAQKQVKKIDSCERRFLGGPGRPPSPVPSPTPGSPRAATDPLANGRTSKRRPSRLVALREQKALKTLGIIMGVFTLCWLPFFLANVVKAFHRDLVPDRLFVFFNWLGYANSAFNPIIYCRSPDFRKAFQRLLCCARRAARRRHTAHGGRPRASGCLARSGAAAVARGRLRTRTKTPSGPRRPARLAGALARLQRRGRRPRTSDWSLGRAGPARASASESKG
# experiment.notes: pA2 on isolated guinea pig atria
# Type: cell-based
# applied.conditions: isolated guinea pig atria; read-out: pA2, positive chronotropic (converted)
Decision: Kb compared against 60 nM; not below it gives yes, below it gives no.

Reference set (6 entries):
CCCCCCCCC(=O)NCc1ccc(OCC(O)CNC(C)C)c(OC)c1 (centres unmarked) :: no
CCCCCCCCC(=O)NCc1ccc(OCC(O)CNC(C)CC)c(OC)c1 (centres unmarked) :: yes
CCCCCCCCC(=O)NCc1ccc(OCC(O)CNC(C)(C)C)c(OC)c1 (centres unmarked) :: no
CCCCCCCCC(=O)NCc1ccc(OCC(O)CNCC(C)C)c(OC)c1 (centres unmarked) :: yes
C=CCNCC(O)COc1ccc(CNC(=O)CCCCCCCC)cc1OC (centres unmarked) :: yes
CCCCCCCCC(=O)NCc1ccc(OCC(O)CNCCCCCC)c(OC)c1 (centres unmarked) :: yes

Pending molecule:
Would you say CCCCCCCCC(=O)NCc1ccc(OCC(O)CNC)c(OC)c1 (centres unmarked) shows Kb at minimum 60 nM? yes

---

Kindly state Protection for each of the entries shown.
# Test system: acetic acid-induced writhing syndrome
# experiment.notes: Acetic acid-induced writhing (antinociceptive test)
# Format: in vivo, male mice (ddk strain)
# applied.conditions: 1.25 mg/kg i.p., N = 8
Answers are plain numbers, in %.

Below are worked cases with known answers.
COc1cc(C=CC(C)=O)ccc1O [DZ] :: 63.06
COc1cc(C=CC(C)=O)ccc1OCC1CO1 (stereo not shown) [DZE] :: 65.69
COc1cc(CCC(C)=O)ccc1O [zingerone, reference compound] :: 71.10

Next compound, Protection to be filled in.
State its Protection on acetic acid-induced writhing syndrome: COc1cc(C=CC(C)=O)ccc1OCC(O)CNC(C)C (racemic) [DZN] 86.06

---

# Test system: heart rate and blood pressure
# experiment.notes: Heart rate and blood pressure changes of rats induced by guaiacoxypropanolamines
# Assay type: in vivo
# applied.conditions: 10 min after dosing, 1.0 mg/kg iv, means ± SE (n = 8)
Assignment: determine reported change in HR for the given molecules.
Hi, when you answer, please include the unit after the number. Thanks!

CCCCCCCCC(=O)NCc1ccc(OCC(O)CNC(C)(C)C)c(OC)c1 (stereo not drawn) [NH-t-C4 H9] :: -37.75 ± 4.44 beats/min
CCCCCCCCC(=O)NCc1ccc(OCC(O)CNCC)c(OC)c1 (stereo not drawn) [NHC2 H5] :: -32.22 ± 5.36 beats/min
CCCCCCCCC(=O)NCc1ccc(OCC(O)CNCCCC)c(OC)c1 (stereo not drawn) [NH-n-C4 H9] :: -33.78 ± 5.08 beats/min
CCCCCCCCC(=O)NCc1ccc(OCC(O)CNCCC)c(OC)c1 (stereo not drawn) [NH-n-C3 H7] :: -35.33 ± 6.05 beats/min
CCCCCCCCC(=O)NCc1ccc(OCC(O)CNCC(C)C)c(OC)c1 (stereo not drawn) [NH-i-C4 H9] :: -35.25 ± 7.98 beats/min
CCCCCCCCC(=O)NCc1ccc(OCC(O)CNCCCCCC)c(OC)c1 (stereo not drawn) [NH-n-C6 H13] :: -24.11 ± 3.31 beats/min

List the reported change in HR of each molecule below.
1. CCCCCCCCC(=O)NCc1ccc(OCC(O)CNC(C)CC)c(OC)c1 (stereo not drawn) [NH-s-C4 H9]
2. C=CCNCC(O)COc1ccc(CNC(=O)CCCCCCCC)cc1OC (stereo not drawn) [NHC3 H5]
3. CCCCCCCCC(=O)NCc1ccc(OCC(O)CNC2CC2)c(OC)c1 (stereo not drawn) [NH-c-C3 H5]

["-35.44 ± 12.46 beats/min", "-28.22 ± 9.00 beats/min", "-38.89 ± 9.47 beats/min"]

---

What EC50 was measured for each of the following?
# measured.on: β-receptor (Cavia porcellus, UniProt H0W3H1)
# Sequence (H0W3H1 1-470): as above
# experiment.notes: Receptor binding assay, [3H]-dihydroalprenolol, heart ventricle membranes
One number for each entry, in µM.

COc1cc(CCC(C)=O)ccc1OCC(O)CNC(C)C (racemic) [ZPN] :: 11
COc1cc(C=CC(C)=O)ccc1OCC(O)CNC(C)(C)C (racemic) [DZBN] :: 3.6

Turning now to a further compound:
Any idea what its EC50 is? The compound is COc1cc(C=CC(C)=O)ccc1OCC(O)CNC(C)C (racemic) [DZN] 1.3

---

# System: heart rate and blood pressure
# experiment.notes: Heart rate and blood pressure changes of rats induced by guaiacoxypropanolamines
# Type: in vivo
# applied.conditions: 15 min after dosing, 1.0 mg/kg iv, means ± SE (n = 8)
Could you please report measured change in BP for the items listed next?
One number for each entry, in mmHg.

Below: 3 molecules and their reported change in BP.
CCCCCCCCC(=O)NCc1ccc(OCC(O)CNCC(C)C)c(OC)c1 (stereo not drawn) [NH-i-C4 H9] :: 1.63
CCCCCCCCC(=O)NCc1ccc(OCC(O)CNC)c(OC)c1 (stereo not drawn) [NHCH3] :: -0.56
CCCCCCCCC(=O)NCc1ccc(OCC(O)CNC2CCCCC2)c(OC)c1 (stereo not drawn) [NH-c-C6 H11] :: -3.67

For each of the molecules below, state change in BP.
1. CC(C)NCC(O)COc1cccc2ccccc12 (stereo not drawn) [propranolol, reference compound]
2. CCCCCCCCC(=O)NCc1ccc(OCC(O)CNC(C)CC)c(OC)c1 (stereo not drawn) [NH-s-C4 H9]
3. CCCCCCCCC(=O)NCc1ccc(OCC(O)CNCCCC)c(OC)c1 (stereo not drawn) [NH-n-C4 H9]

1. -6.50
2. 3.33
3. -1.22

Below are some molecules; for each one, tell me its change in BP.
1. CCCCCCCCC(=O)NCc1ccc(OCC(O)CNCCC)c(OC)c1 (stereo not drawn) [NH-n-C3 H7]
2. CCCCCCCCC(=O)NCc1ccc(OCC(O)CNC2CC2)c(OC)c1 (stereo not drawn) [NH-c-C3 H5]
3. CCCCCCCCC(=O)NCc1ccc(OCC(O)CNC(C)C)c(OC)c1 (stereo not drawn) [NH-i-C3 H7]

-3.11
3.89
-2.89

---

# measured.on: Isolated Guinea Pig Atria (Cavia porcellus)
# Construct: Isolated Guinea Pig Atria; from tissue; host or cells: guinea pig atria (isolated organ)
# experiment.notes: pA2 on isolated guinea pig atria
# Assay type: cell-based
# applied.conditions: with respect to propranolol
Assignment: determine reported Potency ratio (PR), positive inotropic for the given molecules.
Numbers only.

Here are 2 molecules. What values of Potency ratio (PR), positive inotropic were reported for them?
1. CCCCCCCCC(=O)NCc1ccc(OCC(O)CNC(C)CC)c(OC)c1 (centres unmarked)
2. CCCCCCCCC(=O)NCc1ccc(OCC(O)CNCCCCC)c(OC)c1 (centres unmarked)

1. 0.17
2. 0.14

---

I'd be grateful if you could share measured Kb for these entries.
# measured.on: Isolated Guinea Pig Atria (Cavia porcellus)
# Construct: Isolated Guinea Pig Atria; from tissue; host or cells: guinea pig atria (isolated organ)
# experiment.notes: pA2 on isolated guinea pig atria
# Assay type: cell-based
# applied.conditions: isolated guinea pig atria; read-out: pA2, positive inotropic (converted)
Give bare numbers, in nM.

Examples from the recorded data:
CCCCCCCCC(=O)NCc1ccc(OCC(O)CNC(C)CC)c(OC)c1 (centres unmarked) :: 22.4
CCCCCCCCC(=O)NCc1ccc(OCC(O)CNCC(C)C)c(OC)c1 (centres unmarked) :: 26.9
C=CCNCC(O)COc1ccc(CNC(=O)CCCCCCCC)cc1OC (centres unmarked) :: 25.1
CCCCCCCCC(=O)NCc1ccc(OCC(O)CNC(C)C)c(OC)c1 (centres unmarked) :: 8.51

Can you give me Kb for all of these, one by one?
1. CCCCCCCCC(=O)NCc1ccc(OCC(O)CNCCCCCC)c(OC)c1 (centres unmarked)
2. CCCCCCCCC(=O)NCc1ccc(OCC(O)CNC)c(OC)c1 (centres unmarked)
3. CCCCCCCCC(=O)NCc1ccc(OCC(O)CNCCCC)c(OC)c1 (centres unmarked)
4. CCCCCCCCC(=O)NCc1ccc(OCC(O)CNC(C)(C)C)c(OC)c1 (centres unmarked)

66.1
74.1
53.7
15.8

---

# Test system: heart rate and blood pressure
# experiment.notes: Heart rate and blood pressure changes of rats induced by guaiacoxypropanolamines
# Assay type: in vivo
# applied.conditions: 10 min after dosing, 1.0 mg/kg iv, means ± SE (n = 8)
Hi! Could you tag entries with change in HR below -40 beats/min as criterion met, and those at or above as criterion not met? Much appreciated.

Lab log: compare recorded change in HR with -40 beats/min; is it strictly lower for CCCCCCCCC(=O)NCc1ccc(OCC(O)CNCCCCC)c(OC)c1 (centres unmarked) ? criterion not met

Is change in HR of CCCCCCCCC(=O)NCc1ccc(OCC(O)CNC2CCCCC2)c(OC)c1 (centres unmarked) strictly below -40 beats/min? criterion not met

Consider the compound CC(C)NCC(O)COc1cccc2ccccc12 (centres unmarked) [propranolol, reference compound] . Is its change in HR strictly less than -40 beats/min? criterion met

Please indicate whether the reported change in HR of CCCCCCCCC(=O)NCc1ccc(OCC(O)CNC)c(OC)c1 (centres unmarked) is strictly below -40 beats/min. criterion not met
